target: adenosine A1 receptor (Rattus norvegicus); construct: Whole brain minus cerebellum and brainstem from male Long Evans rats (150-200 g) was homogenized; from tissue; host or cells: rat whole brain minus cerebellum and brainstem, male Long Evans; test: Adenosine A1 receptor binding (RBA-1), displacement of [3H]-CHA; conditions: 1.0 nM [3H]-CHA, rat whole brain minus cerebellum and brainstem; read-out: RBA-1 (IC50, adenosine A1 receptor affinity)
Sequence (P25099 whole entry): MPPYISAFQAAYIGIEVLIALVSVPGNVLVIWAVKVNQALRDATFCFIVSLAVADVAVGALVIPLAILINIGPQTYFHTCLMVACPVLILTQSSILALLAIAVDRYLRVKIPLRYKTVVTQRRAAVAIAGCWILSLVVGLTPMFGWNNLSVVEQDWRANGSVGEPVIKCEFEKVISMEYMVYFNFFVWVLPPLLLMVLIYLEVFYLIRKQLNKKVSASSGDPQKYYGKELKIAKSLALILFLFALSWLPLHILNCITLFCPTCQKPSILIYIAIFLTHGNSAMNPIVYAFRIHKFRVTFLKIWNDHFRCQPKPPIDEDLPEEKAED
ATTRIBUTE MEASURED: IC50
Could you give the number and then its unit, please?

COMPOUND: OCC(O)CNc1ncnc2c1ncn2[C@@H]1O[C@H](CO)[C@@H](O)[C@@H]1O (stereo partly drawn) [Example 1, (R,S)-N^6 [2,3-Dihydroxypropyl]adenosine]
IC50: 9 nM
--
COMPOUND: C[C@H]1O[C@@H](n2cnc3c(NCC4COC(C)(C)O4)ncnc32)[C@H](O)[C@@H]1O (stereo partly drawn)
IC50: 8800 nM
--
COMPOUND: Nc1nc(NCC(O)CO)c2ncn([C@@H]3O[C@H](CO)[C@@H](O)[C@H]3O)c2n1 (stereo partly drawn)
IC50: 34 nM
--
COMPOUND: CC1(C)OC[C@H](CNc2ncnc3c2ncn3[C@@H]2O[C@H](CO)[C@@H](O)[C@H]2O)O1
IC50: 940 nM
--
COMPOUND: CC1(C)OC[C@@H](CNc2ncnc3c2ncn3[C@@H]2O[C@H](CO)[C@@H](O)[C@H]2O)O1
IC50: 440 nM

Now consider a different compound.
Prompt: Which IC50 value is on record for CC1(C)OCC(CNc2ncnc3c2ncn3[C@@H]2O[C@H](CO)[C@@H](O)[C@H]2O)O1 (stereo partly drawn) ?
Response: 430 nM
